Assay: yeast display, Sf9 membrane polyspecificity reagent, FACS + sequencing; frameworks hold sequencing errors

Polymer sequence | polyreactivity (PSR sort gate)
QVQLVESGGGLVQAGGSLRLSCAASGSIFYRNAMGWYRQAPGKERELVAAISGRGGSTNYADSVKGRFTISRDNAKNTVYLQMNSLKPEDTAVYYCNRYGVSNILVRGGYWGQGTQVTVSS | high polyreactivity
QVQLLETGGGLVQAGGSLRLSCAPSGSTFYYYAMGWYRQAPGKEWELVAAISWSGVSTYYADSVKGRFTISRDNAKTTVYLQMNSLKPEDNAVYYCNADSYTLYGRYDYWGQGTQVTVSS | low polyreactivity
QVQLVESGGGLVQAGGSLRVSCAASGRIFYPYAMGWYRQAPGKERELVAAIRRSGVDTYYADSVKGRFTISRDNAKNTVYLQMNSLKPEDTAVYYCDADPYWFFPHYDSWGQGTQVTVSS | low polyreactivity
QVQLVESGGGLVQAGGSLRLSCAASGITLRYYTMGWYRQPPGKERELVADISYRGGSTTYADSVKGRFTISRDNAKNTVYLQMNSLKPEDTAVYYCNARKRTFPSRSIGGDYWGQGTQVTVSS | high polyreactivity
QVQLVESGGGLVQAGGSLRLSCAASGFTFRYYAMGWYRQAPGKERELVAGISRGGSTYYADSVKGRFTISRDNAKNSVYLQMNSLKPEDTAVYYCAARSYARKSYEMGYWGQGTQVTVSS | high polyreactivity
QVQLVESGGGLVQAGGSLRLSCAASGLIFRRYAMGWYRQAPGKEREFVAAISWSGGSTYYADSVKGRFTISRDNAKNTVYLQMNSLKPEDTAVYYCAARYRFGGIRRYNYWGQGTQVTVSS | high polyreactivity
QVQLVESGGGLVQAGGSLRLSCAASGSTLTRHAMGWYRQAPGKERELVAAITSGGRTKYADSVKGRFTISRDNAKYTVYLHMNSLKPEDTAVYYCAKGGPPGQRGYDYWGQGTQVTVSS | high polyreactivity
QVQLVESGGGLVQAGGSLRLSLAASGSIFRAYVMGWYRPAPGKERELVAAITRSGARTYYADSLKGRFTLSRDNAKNTVYLQMNSLKPEDTAVYYCAAETSGSQSKLYYYWGQGTQVTVSS | high polyreactivity
QVQLVESGGGLVQAGGSLRLSCAASGFIFSYYAMGWYRQAPGKERELVAANSSSGGTTYADSVKGRFTISRDNAKNTVYLQMNSLKPEDTAVYYCARVQYWFYKPMYYWGQGTQVTVSS | high polyreactivity
QVQLVDSGGGLVQAGGSLRLSCAASGRIFAWYAMGWYRQAPGKERELVAAISSGGSTNYADSVKGRFTISRDNAKNTVYLQMNSLKPEDTAVYYCNRYPVRDTGGYWGQGTQVTVSS | low polyreactivity
QVQLVESGGGLVQAGGSLRLSCAASGSIFVRNVMGWYRQAPGKERELVAGISWNGGSTFNADSVKGRFTISRDNAKNTVYLQMNSLKQEDTAVYYCAARGRHSGYYSFPYYYWGQGTQVTVSS | low polyreactivity
